Biological target: human Siglec-7 on primary human monocyte-derived dendritic cells (human, UniProt Q9Y286 19-467)
Sequence (Q9Y286 19-467): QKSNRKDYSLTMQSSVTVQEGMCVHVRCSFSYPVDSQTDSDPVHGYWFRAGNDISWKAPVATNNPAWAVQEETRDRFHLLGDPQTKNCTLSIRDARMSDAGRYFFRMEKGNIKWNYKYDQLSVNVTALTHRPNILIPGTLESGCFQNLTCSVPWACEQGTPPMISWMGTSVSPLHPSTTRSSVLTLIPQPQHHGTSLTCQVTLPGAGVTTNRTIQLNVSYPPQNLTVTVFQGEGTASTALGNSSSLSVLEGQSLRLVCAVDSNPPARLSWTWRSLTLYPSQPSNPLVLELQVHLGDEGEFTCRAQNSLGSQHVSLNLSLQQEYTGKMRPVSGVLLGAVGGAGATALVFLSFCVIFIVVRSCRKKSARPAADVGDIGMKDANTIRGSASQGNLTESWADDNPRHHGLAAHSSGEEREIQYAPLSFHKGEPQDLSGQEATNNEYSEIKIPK
Test: cell-based or functional assay
Documented Maximal downregulation (% Siglec-7 remaining) across a set of binders
Give the quantity in %, number only.

Completed entries (count: 2):
binder="S7AB-H8.15 (antibody, V domains shown) VH: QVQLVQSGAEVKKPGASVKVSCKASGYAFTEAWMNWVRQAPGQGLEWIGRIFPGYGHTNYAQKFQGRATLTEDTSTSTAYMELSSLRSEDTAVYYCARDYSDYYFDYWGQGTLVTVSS VL: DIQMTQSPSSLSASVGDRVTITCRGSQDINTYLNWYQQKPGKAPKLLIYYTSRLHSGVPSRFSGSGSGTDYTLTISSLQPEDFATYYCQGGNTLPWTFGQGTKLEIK" unit_abbrev=% quantitative_result=85
binder="S7AB-H8.10.1 (antibody, V domains shown) VH: QVQLVQSGAEVKKPGASVKVSCKASGYAFTEAWMNWVRQAPGQRLEWIGRIFPGYGHTNYAQKFQGRATLTEDTSTSTAYMELSSLRSEDTAVYYCARDYSDYYFDYWGQGTLVTVSS VL: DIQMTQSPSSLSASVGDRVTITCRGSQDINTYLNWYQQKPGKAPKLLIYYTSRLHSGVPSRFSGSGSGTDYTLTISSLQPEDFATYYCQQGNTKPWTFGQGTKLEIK" unit_abbrev=% quantitative_result=10.7

Consider the record given below.
Query string: If you can, please state the reported Maximal downregulation (% Siglec-7 remaining) value of S7AB-H8.28 (antibody, V domains shown) VH: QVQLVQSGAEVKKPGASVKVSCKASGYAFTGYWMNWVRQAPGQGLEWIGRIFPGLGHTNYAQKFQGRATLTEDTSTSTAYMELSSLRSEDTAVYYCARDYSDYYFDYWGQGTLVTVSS VL: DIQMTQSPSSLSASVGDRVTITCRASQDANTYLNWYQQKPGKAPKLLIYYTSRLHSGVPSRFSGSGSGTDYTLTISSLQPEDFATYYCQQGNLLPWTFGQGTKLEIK .
Result string: 17
